Please respond with reported TGI for every item in the list.
system: SF-539 CNS; assay: NCI tumour cell line growth inhibition, 48 h
Numbers only, in µM.

Examples from the recorded data:
Cn1cc(-c2csc(-c3c[nH]c4ccccc34)n2)c2cnccc21; 3.29
COc1cc(-c2nn(-c3cccc(NC(=O)Nc4cccc(C(F)(F)F)c4)c3)cc2-c2ccncc2)ccc1Cl; 2.56

Noted for "O=C(NC(=S)Nc1ccc2c(c1)Sc1ccccc1O2)c1ccccc1" : its TGI reads 64.6

====

tested on: SR leukemia; assay: NCI tumour cell line growth inhibition, 48 h
property.measured: TGI

Examples from the recorded data:
Nc1c(C(=O)Nc2cccc(C(F)(F)F)c2)sc2nc3c(cc12)C(O)CCC3 (configuration not stated); > 88.1 µM
COc1ccc2c(c1OC)-c1c(c3ccc([N+](=O)[O-])cc3c(=O)n1CCCN)C2=O; 0.272 µM
CC(C)Oc1ccc(-c2nn([C@@H](C)c3oc4ccc(F)cc4c(=O)c3-c3cccc(F)c3)c3ncnc(N)c23)cc1F; > 100 µM
CN(C)CC/C(=N\Nc1ccc(Cl)cc1)c1ccccc1; 4.4 µM
Nc1ncnc2c1ncn2C1CC(O)C(CO)O1 (configuration not stated); > 100 µM

Quick request: TGI for each listed item, please.
1. CCCCCCN1CCc2c(C)c(C#N)c3nc4ccccc4n3c21
2. COc1cc(OC)c(/C=C/c2cc[n+](C)c3ccccc23)c(OC)c1
3. O=NN1CCNC1Cc1ccccc1 (configuration not stated)
4. S=C(Nc1ccccc1)c1ccc(CN2CCCCC2)s1
5. N#CC1CCCC2SC(F)(F)C(F)(F)C12 (configuration not stated)
6. O=c1oc2ccc(Cl)cc2c2ccccc12

> 100 µM
> 100 µM
> 100 µM
51.5 µM
72.7 µM
> 100 µM

Noted for COc1cc(O)c2c(c1)OCC1(Cc3cc(OC)c(OC)cc31)C2=O (configuration not stated) : its TGI reads > 100 µM

====

Please respond with reported TGI for every item in the list.
test system: 786-0 renal; test: NCI tumour cell line growth inhibition, 48 h

Examples from the recorded data:
CC(C)N(C(C)C)[PH+]1O[PH+](N(C(C)C)C(C)C)O[PH+](N(C(C)C)C(C)C)O[PH+](N(C(C)C)C(C)C)O1.[C-]#[O+].[C-]#[O+].[C-]#[O+].[C-]#[O+].[C-]#[O+].[C-]#[O+].[C-]#[O+].[C-]#[O+].[Mo].[Mo] (stereo not given); > 100 µM
Nc1ncnc2c1ncn2C1CC(O)C(CO)O1 (stereo not given); > 100 µM
c1ccc(-c2nnc(CCCCCCCCc3nnc(-c4ccccc4)o3)o2)cc1; > 100 µM
CC(=O)OCC1OC(Nc2ccc3nc(C)n(-c4ccccc4)c(=O)c3c2)C(OC(C)=O)C(OC(C)=O)C1OC(C)=O (stereo not given); > 50 µM
Cc1ccc(NC(=O)CC(=O)N2N=C(N(C)c3ccccc3)CC2c2ccccc2)cc1 (stereo not given); > 100 µM

Quick request: TGI for each listed item, please.
1. Cc1oc2c(C(=O)N/N=C\c3ccc(O)cc3O)c[nH]c2c1C
2. O=S(=O)(c1ccccc1)n1c(C(O)c2ccccc2)cc2ccccc21 (stereo not given)

7.49 µM
29.6 µM

Quick request: TGI for each listed item, please.
1. c1ccc2c(c1)Oc1cccc3cccc-2c13
2. COc1cc(C(=O)N(C)N(C)C)cc(OC)c1OC
3. Clc1ccccc1/C=C/c1ccnc2ccccc12
4. CCCCCCCCCCCC(=O)NCc1ccc(OC(=O)CCCCCCCCCCC)c(OC)c1
5. O=C1C(C=NC(=S)c2ccccc2)=C(O)c2ccccc21

1. > 100 µM
2. > 10 µM
3. 29.2 µM
4. > 100 µM
5. > 66.7 µM

Quick request: TGI for each listed item, please.
1. COc1ccc(/C=C/C(=O)c2sc(NC(=S)NC(=O)c3ccc(Cl)cc3)nc2C)cc1OC
2. O=C(CN(/C=C/C(=O)C(F)(F)F)c1ccc(Cl)cc1)c1ccc(F)cc1
3. COc1cc(OC)c(/C=C/c2cc[n+](C)c3ccccc23)c(OC)c1
4. CC(=O)Oc1cc(C(C)C)c(OCCN(C)C)cc1C
5. CC(C)Oc1ccc(-c2nn([C@@H](C)c3oc4ccc(F)cc4c(=O)c3-c3cccc(F)c3)c3ncnc(N)c23)cc1F
6. CC(=O)Nc1ccc(C2C(C(=O)Nc3ccccc3)=C(C)NC(C)=C2C(=O)Nc2ccccc2)cc1
7. O=NN1CCNC1Cc1ccccc1 (stereo not given)

1: > 100 µM; 2: 42.3 µM; 3: 22.3 µM; 4: > 100 µM; 5: > 100 µM; 6: > 100 µM; 7: > 100 µM

Noted for CCC(N)(C(=O)O)C(C)C (stereo not given) : its TGI reads > 100 µM
